Cited source: patent US20240254204A1

Kindly supply the reported sVNT SARS-CoV-1 (% I) values for the records listed here.
- experimental-target: SARS-CoV-1 RBD (SARS-CoV)
- assay-name: sVNT, cPass kit format with SARS-CoV-1 RBD-HRP; HEK293 supernatant
Report the figure in % without appending any unit label.

Any idea what its sVNT SARS-CoV-1 (% I) is? The binder is Antibody 7 (SS6V7-C5) (antibody, V domains shown) VH: EVQLVQSGAEVKKPGESLKISCKGSENIFSGYWIGWVRQMPGKGLEWMGIIYPDDSDTRYNPSFQGQVTISADQSISTAYLQWSRLKASDTAMYYCARHLGGGSSWPIDYWGQGTLVTVSS VL: DIQMTQSPSSLSASVGDRVTITCRANQGISNYLAWFQQKPGKAPKSLIYAASSLQSGVPSKFSGNRSGTDFTLTISSLQPEDFATYYCQQYSSYPFTFGGGTKVEIK
20.8

Returns the measured sVNT SARS-CoV-1 (% I) for the input binder. Input: Antibody 5 (SS6V5-C3) (antibody, V domains shown) VH: EVQLVQSGAEVRKPGESLKISCKTSGYTFTHYWIGWVRQLPGKGLEWMGIIYPDDSDTKYSPSFQGQITISADKSISTAYLQWNSLKASDTAMYFCATADIVVGSNFFDHWGQGTLVTVSS VL: DIQMTQSPSTLSASVGDRVTITCRASQSISTWLAWYQQKPGKPPKVLIYKASILESGVSSRFSGSGSGTEFTLTISSLQPDDFATYYCQHYNSYIKTFGQGTKVEIK
11.7

Please give the measured sVNT SARS-CoV-1 (% I) for this binder: Antibody 1 (SS6V1-B5) (antibody, V domains shown) VH: EVQLVESGGGLVQPGGSLRLSCAASGFILRNYEMQWVRQAPGKGLEWVSVIGNTGGTFYAGSVKGRFTISRENAKNSLYLQMNSLRAEDTALYYCARVTYTSSPLPFWFLDLWGRGTLVTVSS VL: DIQMTQSPSSLSASVGDRVTITCRASQSIGNYLNWYQQKSGKAPKILIYAASSLQSGVPSRFSGSGSGTDFTLTISSLQPEDFATYYCQQTYRTPPEDSFGQGTKVEIK
52.1
